Biological target: CDK2/Cyclin E1 (Homo sapiens, UniProt P24941)
Experiment: CDK2/Cyclin E1 TR-FRET biochemical assay, 0.060 mM ATP
Details: 0.15 μM Rb (Ser780)-biotin substrate, 120 min reaction, Table 1
metric: IC50 (nM)

I = Cc1ccnn([C@H]2CC[C@@H](c3cc(Nc4ccc5c(c4F)CNS5(=O)=O)n[nH]3)C2)c1=O (relative stereo) [Example 23]
II = Cn1nccc1O[C@@H]1CC[C@H](c2cc(Nc3ccc4c(c3F)CNS4(=O)=O)n[nH]2)C1 (relative stereo) [Example 63]
III = O=c1c2ccncc2cnn1[C@H]1CC[C@@H](c2cc(Nc3ccc4c(c3F)CNS4(=O)=O)n[nH]2)C1 (relative stereo) [Example 34]
Prompt: Hey, quick one: sort these by IC50, largest value first please. Enter labels, ranked according to the request.
Completion: I, II, III
(I: 132 nM, II: 90 nM, III: 63 nM)

###

Molecular target: CDK1/Cyclin B1 (Homo sapiens)
Sequence (P06493 whole entry): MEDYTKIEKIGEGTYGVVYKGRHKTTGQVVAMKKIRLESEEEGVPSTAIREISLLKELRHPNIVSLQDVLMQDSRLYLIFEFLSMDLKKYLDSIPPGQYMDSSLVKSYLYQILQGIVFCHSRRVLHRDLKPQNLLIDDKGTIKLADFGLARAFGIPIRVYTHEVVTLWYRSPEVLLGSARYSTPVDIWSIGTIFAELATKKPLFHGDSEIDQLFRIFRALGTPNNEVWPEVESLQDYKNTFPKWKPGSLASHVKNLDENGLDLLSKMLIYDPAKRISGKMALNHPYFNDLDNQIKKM
Sequence (P14635 whole entry partner): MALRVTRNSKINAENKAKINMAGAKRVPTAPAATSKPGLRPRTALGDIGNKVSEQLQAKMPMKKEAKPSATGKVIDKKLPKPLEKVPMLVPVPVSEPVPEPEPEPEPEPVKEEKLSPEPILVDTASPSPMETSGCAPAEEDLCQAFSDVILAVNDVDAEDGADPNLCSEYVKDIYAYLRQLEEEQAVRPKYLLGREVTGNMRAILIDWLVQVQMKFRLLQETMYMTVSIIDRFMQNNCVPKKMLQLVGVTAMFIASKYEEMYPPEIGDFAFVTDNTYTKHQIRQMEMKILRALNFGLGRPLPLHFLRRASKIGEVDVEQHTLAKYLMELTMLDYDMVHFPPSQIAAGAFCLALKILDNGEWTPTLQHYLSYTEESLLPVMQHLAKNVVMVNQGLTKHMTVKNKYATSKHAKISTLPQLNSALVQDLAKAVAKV
Test: CDK1/Cyclin B1 TR-FRET biochemical assay, 1 mM ATP
Details: 0.15 μM Rb (Ser780)-biotin substrate, 90 min reaction, Table 2
pIC50: −log10 of the molar value.
metric: pIC50

I = CC(C)c1ccnc(C2CCC(c3cc(Nc4cc5c(cc4F)S(=O)(=O)NC5)n[nH]3)C2)n1 (stereo not drawn)
II = Cc1ccnc(C2CCC(c3cc(Nc4ccc5c(c4F)CNS5(=O)=O)n[nH]3)C2)n1 (stereo not drawn)
Prompt: Would you let me know which has the greater pIC50 value, I or II ? Identify your pick by its label.
Completion: I
(I: 5.60, II: 5.07)
